pIC50: −log10 of the molar value.
Parameter pIC50, tested on Tyrosine-protein kinase BTK (Homo sapiens), listed per item.
Sequence (Q06187 whole entry): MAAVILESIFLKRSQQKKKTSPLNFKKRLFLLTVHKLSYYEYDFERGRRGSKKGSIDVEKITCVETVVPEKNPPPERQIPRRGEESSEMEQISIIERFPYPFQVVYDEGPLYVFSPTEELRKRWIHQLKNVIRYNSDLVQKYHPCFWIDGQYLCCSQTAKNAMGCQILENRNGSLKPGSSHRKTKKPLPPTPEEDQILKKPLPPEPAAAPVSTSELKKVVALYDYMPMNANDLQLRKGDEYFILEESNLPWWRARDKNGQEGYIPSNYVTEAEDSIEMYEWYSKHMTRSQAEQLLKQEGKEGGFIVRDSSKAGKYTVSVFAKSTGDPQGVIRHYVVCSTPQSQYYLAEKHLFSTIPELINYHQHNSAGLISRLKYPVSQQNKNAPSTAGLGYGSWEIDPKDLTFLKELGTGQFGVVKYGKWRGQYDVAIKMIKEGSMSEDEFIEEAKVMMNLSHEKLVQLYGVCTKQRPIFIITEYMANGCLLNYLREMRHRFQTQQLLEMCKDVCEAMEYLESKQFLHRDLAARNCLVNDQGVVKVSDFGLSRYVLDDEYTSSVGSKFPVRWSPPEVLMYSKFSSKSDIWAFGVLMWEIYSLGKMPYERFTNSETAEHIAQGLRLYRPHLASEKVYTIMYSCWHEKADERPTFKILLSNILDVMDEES
assay readout: pIC50

Worked examples follow.
| structure notation | data value |
| --- | --- |
| Cc1c(-c2ccc3c(=O)[nH]c4cc(C(C)(C)O)ccc4n23)cccc1-n1c(=O)[nH]c2c(F)cccc2c1=O | 8.08 |
| [2H]C([2H])([2H])C(O)(c1ccc2c(c1)[nH]c(=O)c1ccc(-c3cccc(-n4c(=O)[nH]c5c(F)cccc5c4=O)c3C)n12)C([2H])([2H])[2H] | 7.91 |

a = Cc1c(-c2ccc3c(=O)[nH]c(-c4ccc(C(C)(C)O)cc4)cn23)cccc1-n1c(=O)[nH]c2c(F)cccc2c1=O
b = CC(C)(O)c1ccc2c(c1)[nH]c(=O)c1ccc(-c3cccc(-n4c(=O)[nH]c5c(F)cccc5c4=O)c3C(F)F)n12
c = Cc1c(-c2ccc3c(=O)[nH]c4cc(C(C)(C)O)ccc4n23)cccc1-n1c(=O)[nH]c2cc(C3CC3)ccc2c1=O
query: Which order do these items take when sorted by rising pIC50? List them. Response field: labels, in requested order.
result: a, c, b
(a: 7.19, c: 7.77, b: 7.97)

----------
# assay comment: Cmax in male Sprague-Dawley rat at 10 mg/kg, po measured up to 5 hrs by LC-MS/MS analysis
# Type: ADME, organism-based
# condition context: in vivo
assay readout: Cmax (ng/mL)

| structure notation | unit | data value |
| --- | --- | --- |
| [2H]C([2H])([2H])C(O)(c1ccc2c(c1)[nH]c(=O)c1ccc(-c3cccc(-n4c(=O)[nH]c5c(F)cccc5c4=O)c3C)n12)C([2H])([2H])[2H] | ng/mL | 10.4 |

I = CC(C)(O)c1ccc2c(c1)[nH]c(=O)c1ccc(-c3cccc(-n4c(=O)[nH]c5c(F)cccc5c4=O)c3F)n12
II = Cc1c(-c2ccc3c(=O)[nH]c4cc(C(C)(C)O)ccc4n23)cccc1-n1c(=O)[nH]c2c(F)cccc2c1=O
III = Cc1cc2c(=O)[nH]c3cc(C(C)(C)O)ccc3n2c1-c1cccc(-n2c(=O)[nH]c3c(F)cccc3c2=O)c1C
query: # rank by Cmax, ascending (min first) Respond with an ordered listing of the labels, as requested.
result: III, II, I

----------
# assay comment: Tmax in male Sprague-Dawley rat at 10 mg/kg, po measured up to 5 hrs by LC-MS/MS analysis
# Format: ADME, organism-based
# condition context: in vivo
assay readout: Tmax (min)

Before answering, review these 2 worked examples.
| structure notation | unit | Tmax |
| --- | --- | --- |
| Cc1c(-c2ccc3c(=O)[nH]c4cc(C(C)(C)O)ccc4n23)cccc1-n1c(=O)[nH]c2c(F)cccc2c1=O | min | 60 |
| CC(C)(O)c1ccc2c(c1)[nH]c(=O)c1ccc(-c3cccc(-n4c(=O)[nH]c5c(F)cccc5c4=O)c3F)n12 | min | 30 |

P = [2H]C([2H])([2H])C(O)(c1ccc2c(c1)[nH]c(=O)c1ccc(-c3cccc(-n4c(=O)[nH]c5c(F)cccc5c4=O)c3C)n12)C([2H])([2H])[2H]
Q = Cc1cc2c(=O)[nH]c3cc(C(C)(C)O)ccc3n2c1-c1cccc(-n2c(=O)[nH]c3c(F)cccc3c2=O)c1C
query: Which entry has a larger number for Tmax, P or Q ? Mark your selection by writing its label.
result: Q

----------
# measurement target: UniProt:Q06187
# assay comment: Inhibition of BTK (unknown origin) by HTRF analysis
assay readout: IC50 (nM)

Below are worked cases with known answers.
| structure notation | IC50 (nM) |
| --- | --- |
| Cc1cc2c(=O)[nH]c3cc(C(C)(C)O)ccc3n2c1-c1cccc(-n2c(=O)[nH]c3c(F)cccc3c2=O)c1C | 11 |
| Cc1c(-c2ccc3c(=O)[nH]c4cc(C(C)(C)O)ccc4n23)cccc1-n1c(=O)[nH]c2c(F)cc(F)cc2c1=O | 7.2 |

A = Cc1c(-c2c(F)cc3c(=O)[nH]c4cc(C(C)(C)O)ccc4n23)cccc1-n1c(=O)[nH]c2c(F)cccc2c1=O
B = Cc1c(-c2ccc3c(=O)[nH]c4cc(C(C)(C)O)ccc4n23)cccc1-n1c(=O)oc2c(F)cccc2c1=O
C = Cc1c(-c2ccc3c(=O)[nH]c4cc(CN5CCOCC5)ccc4n23)cccc1-n1c(=O)[nH]c2c(F)cccc2c1=O
query: Arrange the 3 molecules by rising IC50, starting with the smallest. API: response body holds the labels in the requested order.
result: A, C, B

----------
# assay comment: Aqueous solubility of compound in PBS buffer at pH 7.4 by HPLC analysis
# Type: physicochemical
assay readout: solubility

Answered cases to consult:
| structure notation | assay readout | data value |
| --- | --- | --- |
| Cc1c(-c2ccc3n2Cc2ccc(C(C)(C)O)cc2NC3=O)cccc1-n1c(=O)[nH]c2c(F)cccc2c1=O | solubility | < 0.5 µg/mL |
| Cc1c(-c2ccc3c(=O)[nH]c(-c4ccc(C(C)(C)O)cc4)cn23)cccc1-n1c(=O)[nH]c2c(F)cccc2c1=O | solubility | < 0.5 µg/mL |

Could you now consider this next compound?
query: Please look at this compound and report its solubility: Cc1c(-c2ccc3c(=O)[nH]c4cc(C(C)(C)O)ccc4n23)cccc1N1CC(=O)Nc2c(F)cccc2C1=O
result: 6.3 µg/mL

----------
# assay comment: AUC (0 to t) in male Sprague-Dawley rat at 10 mg/kg, po measured up to 24 hrs by LC-MS/MS analysis
# Type: ADME, organism-based
# condition context: in vivo
assay readout: AUC(0-t) at 24 h (ng·h/mL)

a = Cc1c(-c2ccc3c(=O)[nH]c4cc(C(C)(C)O)ccc4n23)cccc1-n1c(=O)[nH]c2c(F)cccc2c1=O
b = CC(C)(O)c1ccc2c(c1)[nH]c(=O)c1ccc(-c3cccc(-n4c(=O)[nH]c5c(F)cccc5c4=O)c3F)n12
query: Which of the two gives a bigger number for AUC(0-t) at 24 h: a or b ? Lab note: record the label of whichever item you select.
result: b

----------
# assay comment: MRT (0 to 5 hrs) in male Sprague-Dawley rat at 10 mg/kg, po measured up to 5 hrs by LC-MS/MS analysis
# Format: ADME, organism-based
# condition context: in vivo
assay readout: MRT last at 5 h (h)

| structure notation | unit | MRT last at 5 h |
| --- | --- | --- |
| [2H]C([2H])([2H])C(O)(c1ccc2c(c1)[nH]c(=O)c1ccc(-c3cccc(-n4c(=O)[nH]c5c(F)cccc5c4=O)c3C)n12)C([2H])([2H])[2H] | h | 2.05 |
| Cc1cc2c(=O)[nH]c3cc(C(C)(C)O)ccc3n2c1-c1cccc(-n2c(=O)[nH]c3c(F)cccc3c2=O)c1C | h | 1.17 |

I = Cc1c(-c2ccc3c(=O)[nH]c4cc(C(C)(C)O)ccc4n23)cccc1-n1c(=O)[nH]c2c(F)cccc2c1=O
II = CC(C)(O)c1ccc2c(c1)[nH]c(=O)c1ccc(-c3cccc(-n4c(=O)[nH]c5c(F)cccc5c4=O)c3F)n12
query: Given the listed records, identify the one among I and II with higher MRT last at 5 h. Output the label that corresponds to your choice.
result: II
(II: 1.48 h, I: 1.02 h)

----------
# assay comment: AUC (0 to 5 hrs) in male Sprague-Dawley rat at 10 mg/kg, po measured up to 5 hrs by LC-MS/MS analysis
# Type: ADME, organism-based
# condition context: in vivo
assay readout: AUC(0-t) at 5 h (ng·h/mL)

| structure notation | assay readout | data value |
| --- | --- | --- |
| Cc1c(-c2ccc3c(=O)[nH]c4cc(C(C)(C)O)ccc4n23)cccc1-n1c(=O)[nH]c2c(F)cccc2c1=O | AUC(0-t) at 5 h | 39.7 |

a = [2H]C([2H])([2H])C(O)(c1ccc2c(c1)[nH]c(=O)c1ccc(-c3cccc(-n4c(=O)[nH]c5c(F)cccc5c4=O)c3C)n12)C([2H])([2H])[2H]
b = CC(C)(O)c1ccc2c(c1)[nH]c(=O)c1ccc(-c3cccc(-n4c(=O)[nH]c5c(F)cccc5c4=O)c3F)n12
query: Given a and given b , which shows the smaller recorded AUC(0-t) at 5 h? Response format: the label of the selected entry.
result: a
(a: 31.1 ng·h/mL, b: 116 ng·h/mL)

----------
# System: Ramos
# assay comment: Antiproliferative activity against human Ramos cells expressing BTK assessed as inhibition of cell proliferation incubated for 48 hrs by CCK-8 assay
# Format: functional, cell-based
pIC50: −log10 of the molar value.
assay readout: pIC50

Reference set (2 entries):
| structure notation | pIC50 |
| --- | --- |
| Cc1c(-c2ccc3c(=O)[nH]c4cc(C(C)(C)O)ccc4n23)cccc1-n1c(=O)[nH]c2c(F)cc(F)cc2c1=O | 4.45 |
| Cc1c(-c2c(F)cc(C(N)=O)c3[nH]c4c(c23)CC[C@H](C(C)(C)O)C4)cccc1-n1c(=O)c2cccc(F)c2n(C)c1=O | 4.87 |

P = Cc1c(-c2ccc3c(=O)[nH]c4cc(C(C)(C)O)ccc4n23)cc(F)cc1-n1c(=O)[nH]c2c(F)cccc2c1=O
Q = Cc1c(-c2ccc3c(=O)[nH]c4cc(C(C)(C)O)ccc4n23)cccc1-n1c(=O)[nH]c2cc(C3CC3)ccc2c1=O
query: Compare the recorded pIC50 of P and Q ; state which is larger. Respond with the label that goes with your answer.
result: Q

A = [2H]C([2H])([2H])C(O)(c1ccc2c(c1)[nH]c(=O)c1ccc(-c3cccc(-n4c(=O)[nH]c5c(F)cccc5c4=O)c3C)n12)C([2H])([2H])[2H]
B = CC(C)(O)c1ccc2c(c1)[nH]c(=O)c1ccc(-c3cccc(-n4c(=O)[nH]c5c(F)cccc5c4=O)c3F)n12
query: Would you mind telling me which has the lower recorded pIC50 between A and B ? Pick one and reply with its label.
result: A
(A: 4.72, B: 5.10)
